B1: RAB40A (parent)
chain: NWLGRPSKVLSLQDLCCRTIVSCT

Variants of: B1
Assay: protein stability index of a GFP-peptide fusion (GPS, HEK-293T) (PSI 1-6); higher = more stable;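 also: lentivirally expressed fusions sorted by FACS into six bins by GFP to DsRed ratio, PSI derived from sequencing read proportions per bin multiplied by bin number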
Conditions: c terminus: a fixed tail appended
Cut-off 2 on protein stability index, inclusive. At or above means satisfied; below means not satisfied.

1. S22V :: not satisfied
2. L12D :: not satisfied
3. C23D :: satisfied
4. Q13N :: not satisfied
5. I20V :: satisfied
6. C16N :: not satisfied
7. S11C :: not satisfied
8. K8M :: not satisfied
9. W2M :: satisfied
10. R5F :: satisfied
11. L10G :: satisfied
12. L3W :: satisfied
13. P6T :: satisfied
14. V21Y :: satisfied
15. S11K :: satisfied
16. V21A :: satisfied
17. K8V :: not satisfied
18. D14G :: satisfied
19. T24M :: satisfied
20. I20D :: satisfied
